Tested on: HEK-293T
experimental_protocol: Multiplex assay against HEK293T
Type: toxicity, cell-based
condition_info: human, 24 h, 1 µM, compound concentration 1 uM, replicate 1
Population Membrane Permeable-Phenotype (%) values, listed per item
Give the value in % but do not write % after it.

Tell me its Population Membrane Permeable-Phenotype (%) given `Cc1nn(C)c2nc(NNC(=O)Nc3cc(Cl)nc(Cl)c3)cc(C(C)C)c12` as the entry. 0

Next:
Tell me its Population Membrane Permeable-Phenotype (%) given `CC(F)(F)CN1CCOc2c(nn(-c3ccccc3Cl)c2-c2ccc(Cl)cc2)C1=O` as the entry. 0

Tell me its Population Membrane Permeable-Phenotype (%) given `N[C@](CC1c2ccccc2Oc2ccccc21)(C(=O)O)[C@H]1C[C@@H]1C(=O)O` as the entry. 1
